Target: TEAD3 (Homo sapiens, UniProt Q99594)
Sequence (Q99594 whole entry): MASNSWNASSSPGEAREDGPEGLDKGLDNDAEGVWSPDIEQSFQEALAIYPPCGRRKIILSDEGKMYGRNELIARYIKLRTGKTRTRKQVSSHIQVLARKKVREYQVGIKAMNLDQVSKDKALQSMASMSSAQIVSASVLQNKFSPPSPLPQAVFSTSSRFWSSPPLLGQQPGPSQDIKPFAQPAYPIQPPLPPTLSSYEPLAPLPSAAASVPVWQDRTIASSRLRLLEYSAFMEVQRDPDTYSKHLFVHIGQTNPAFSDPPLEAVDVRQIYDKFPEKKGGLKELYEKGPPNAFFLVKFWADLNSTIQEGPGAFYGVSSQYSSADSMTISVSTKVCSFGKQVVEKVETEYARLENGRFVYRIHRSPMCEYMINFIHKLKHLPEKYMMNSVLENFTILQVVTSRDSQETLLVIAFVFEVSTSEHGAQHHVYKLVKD
Experiment: TEAD thermal shift assay (TSA)
Type: binding
Conditions: ratio of protein to compound 1:1
ASSAY_READOUT: TEAD3 ΔTm (°C)
Give bare numbers, in °C.

Known results for compounds:
C[C@H](CO)NC(=O)c1cnc2c(C3=CCC(C(F)(F)F)CC3)cccc2c1 (stereo partly shown) [Compound 7] : 2
C[C@H](NC(=O)c1cnc2c(C3=CC[C@@H](C(F)(F)F)CC3)cccc2c1)c1ncco1 (single isomer, unassigned) [Compound 20] : 2
C[C@H](NC(=O)c1cnc2c(C3=CC[C@@H](C(F)(F)F)CC3)cccc2c1)c1ncco1 (single isomer, unassigned) [Compound 19] : 2

I am curious: what TEAD3 ΔTm value has been reported for C[C@H](NC(=O)c1cnc2c(C3=CCC(C(F)(F)F)CC3)cccc2c1)c1ccccn1 (stereo partly shown) [Compound 2] ?
2

----------
Target: TEAD1 (Homo sapiens)
Sequence (P28347 whole entry): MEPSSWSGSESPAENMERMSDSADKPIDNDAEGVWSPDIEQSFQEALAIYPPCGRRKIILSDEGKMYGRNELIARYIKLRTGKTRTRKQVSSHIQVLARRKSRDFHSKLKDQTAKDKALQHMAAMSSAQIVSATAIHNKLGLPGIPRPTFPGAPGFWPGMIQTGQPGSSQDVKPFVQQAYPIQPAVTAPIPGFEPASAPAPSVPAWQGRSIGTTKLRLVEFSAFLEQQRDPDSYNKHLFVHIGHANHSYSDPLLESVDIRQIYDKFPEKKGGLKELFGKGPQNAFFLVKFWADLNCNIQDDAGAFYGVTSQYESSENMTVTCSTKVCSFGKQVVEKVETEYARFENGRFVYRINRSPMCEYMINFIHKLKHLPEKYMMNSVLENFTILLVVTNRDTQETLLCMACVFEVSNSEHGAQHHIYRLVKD
Experiment: TEAD thermal shift assay (TSA)
Format: binding
Conditions: ratio of protein to compound 1:1
So I've got a bunch of molecules here, and I need their TEAD1 ΔTm values.
One number for each entry, in °C.

C[C@H](CO)NC(=O)c1cnc2c(C3=CCC(C(F)(F)F)CC3)cccc2c1 (some centres unmarked) [Compound 7] : 9
C[C@H](NC(=O)c1cnc2c(C3=CC[C@@H](C(F)(F)F)CC3)cccc2c1)c1ncco1 (single isomer, unassigned) [Compound 20] : 10
C[C@H](NC(=O)c1cnc2c(C3=CC[C@@H](C(F)(F)F)CC3)cccc2c1)c1ncco1 (single isomer, unassigned) [Compound 19] : 12

Respectfully, I request TEAD1 ΔTm for each entry included below.
1. O=C(NCc1ccn[nH]1)c1cnc2c(C3=CCC(C(F)(F)F)CC3)cccc2c1 (centres unmarked) [Compound 47]
2. COC[C@H](CO)NC(=O)c1cnc2c(C3=CCC(C(F)(F)F)CC3)cccc2c1 (some centres unmarked) [Compound 62]
3. COc1cc(C2=CCC(C(F)(F)F)CC2)c2ncc(C(=O)N[C@H](C)c3ncco3)cc2c1 (some centres unmarked) [Compound 109]

1. 9
2. 9
3. 13

Respectfully, I request TEAD1 ΔTm for each entry included below.
1. O=C(NCc1ncco1)c1cnc2c(C3=CCC(C(F)(F)F)CC3)cccc2c1 (centres unmarked) [Compound 11]
2. COc1cc(C2=CCC(C(F)(F)F)CC2)c2ncc(C(=O)N[C@H](C)CO)cc2c1 (some centres unmarked) [Compound 110]

1: 11; 2: 14

----------
Tested on: MSTO-211H xenograft
Experiment: Inhibition of mouse xenograft MSTO-211H tumors
Format: in vivo, BALB/c nude mice
Details: day 6 after the start of treatment; 12.5 mg/kg, PO, BID
Mark 1 for reported Tumor size (mean) of 200 mm^3 or greater; mark -1 for anything smaller.

Examples with answers:
COc1cc(C2=CCC(C(F)(F)F)CC2)c2ncc(C(=O)N[C@H](C)c3ncco3)cc2c1 (some centres unmarked) : -1
C[C@H](CO)NC(=O)c1cnc2c(C3=CCC(C(F)(F)F)CC3)cccc2c1 (some centres unmarked) : 1
COc1cc(C2=CCC(C(F)(F)F)CC2)c2ncc(C(=O)N[C@H](C)CO)cc2c1 (some centres unmarked) : -1
C[C@@H](NC(=O)c1cnc2c(C3=CCC4(CC3)CC4)cccc2c1)c1ncco1 : -1

Please look at the following molecule next.
Textbook exercise: given the entry COC[C@H](CO)NC(=O)c1cnc2c(C3=CCC(C(F)(F)F)CC3)cccc2c1 (some centres unmarked) , state whether its Tumor size (mean) is greater than or equal to 200 mm^3.
1
